Numbers sourced from patent US11198695B2.

tested system: CYP2D6 (Homo sapiens (Human))
Sequence (P10635 whole entry): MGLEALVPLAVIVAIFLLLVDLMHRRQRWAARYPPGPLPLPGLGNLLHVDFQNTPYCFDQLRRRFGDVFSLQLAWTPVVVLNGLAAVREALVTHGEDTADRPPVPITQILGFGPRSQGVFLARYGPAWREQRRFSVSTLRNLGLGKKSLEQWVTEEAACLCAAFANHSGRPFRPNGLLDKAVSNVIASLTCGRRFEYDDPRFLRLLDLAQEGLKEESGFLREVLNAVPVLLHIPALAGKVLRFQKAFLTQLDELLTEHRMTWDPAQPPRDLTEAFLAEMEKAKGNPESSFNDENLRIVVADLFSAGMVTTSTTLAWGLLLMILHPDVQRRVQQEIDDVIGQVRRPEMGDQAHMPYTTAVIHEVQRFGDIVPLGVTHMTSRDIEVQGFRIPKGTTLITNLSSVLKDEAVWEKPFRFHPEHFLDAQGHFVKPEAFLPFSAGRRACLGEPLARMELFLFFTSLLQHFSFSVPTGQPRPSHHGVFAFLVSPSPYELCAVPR

structure as smiles | IC50
Cc1ccc(-n2nc3c(c2NC(=O)CS(C)(=O)=O)C(=O)N[C@@]2(CCc4cc(OCCCC(F)(F)F)ccc42)C3)nn1 | > 20 µM

###

tested system: recombinant human MGAT2 (Homo sapiens (Human))
Sequence (Q3SYC2 whole entry): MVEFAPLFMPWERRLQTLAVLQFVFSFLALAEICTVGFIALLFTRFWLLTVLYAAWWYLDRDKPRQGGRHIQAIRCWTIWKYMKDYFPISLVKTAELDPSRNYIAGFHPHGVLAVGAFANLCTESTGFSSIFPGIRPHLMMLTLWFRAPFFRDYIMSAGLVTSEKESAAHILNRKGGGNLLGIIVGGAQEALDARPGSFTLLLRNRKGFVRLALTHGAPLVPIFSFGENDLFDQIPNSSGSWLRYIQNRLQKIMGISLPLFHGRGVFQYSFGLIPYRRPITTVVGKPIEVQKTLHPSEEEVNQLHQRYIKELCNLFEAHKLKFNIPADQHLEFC
run description: Measurement of human MGAT2 inhibitory activity
Format: biochemical
test parameters: read-out: IC50 (concentration exhibiting 50% enzyme inhibition), Table 52

structure as smiles | unit annotation | IC50
CS(=O)(=O)CC(=O)Nc1c2c(nn1-c1ccc(C#N)cn1)C[C@@]1(CCc3cc(OCC(F)(F)F)ccc31)NC2=O | µM | 0.0033
O=C1N[C@@]2(CCc3cc(OCC(F)(F)F)ccc32)Cc2nn(CCC3CC3)c(C(=O)NS(=O)(=O)C(F)(F)F)c21 | µM | 0.0029
O=C1N[C@@]2(CCc3cc(OCCCC(F)(F)F)ccc32)Cc2nn(CCC3CC3)c(C(=O)O)c21 | µM | 0.07
CS(=O)(=O)CC(=O)Nc1c2c(nn1-c1ccc(C(F)(F)F)cn1)C[C@]1(CCc3cc(OCC(F)(F)F)ccc31)NC2=O | µM | 0.0012
Cn1c(-n2nc3c(c2NC(=O)CS(C)(=O)=O)C(=O)N[C@@]2(CCc4cc(OCCCC(F)(F)F)ccc42)C3)nc2ccccc21 | µM | 0.0415
CC(C)(C#N)C(=O)NCc1c2c(nn1CCC1CC1)C[C@]1(CCc3cc(OCC(F)(F)F)ccc31)NC2=O | µM | 0.078
CS(=O)(=O)CC(=O)Nc1c2c(nn1CCC1CC1)C[C@]1(CCc3cc(C#N)ccc31)NC2=O | µM | 0.16
